This section presents molecules with their documented T/C values.
tested on: L1210 leukemia ip in BDF1 mice, survival T/C; assay: NCI In Vivo Anticancer Drug Screen. Data for tumor model L1210 Leukemia (intraperitoneal) in B6D2F1 (BDF1) mice; conditions: endpoint: mean survival time; dose: 400.0 mg/kg/injection; schedule: Q01DX001 (ip); vehicle: saline; higher = longer survival
Inconclusive results and toxic doses are left out.
property.label: T/C

molecule	property.label	meas.value
O=C(Nc1cnccn1)C(F)(F)F	T/C	105 % of control
O=c1[nH]cnc2c1ncn2C1OCC(O)C(O)C1O (stereo unspecified)	T/C	103 % of control
Cc1cc(C)nc(/N=C(/N)Nc2ccc(S(=O)(=O)NC(=O)Nc3ccccc3)cc2)n1	T/C	102 % of control
CC1=C(Sc2ccccc2)c2ccccc2C1	T/C	91 % of control
OC(c1nc2ccccc2[nH]1)C(O)C(O)C(O)c1nc2ccccc2[nH]1 (stereo unspecified)	T/C	86 % of control
Cc1ccc(C(=O)Nc2ccc3c(c2)Cc2ccccc2-3)cc1	T/C	95 % of control

###

Test system: L1210 leukemia ip in BDF1 mice, survival T/C
Experiment: NCI In Vivo Anticancer Drug Screen. Data for tumor model L1210 Leukemia (intraperitoneal) in B6D2F1 (BDF1) mice
Details: endpoint: mean survival time; dose: 100.0 mg/kg/injection; schedule: Q01DX001 (ip); vehicle: saline; higher = longer survival
Experimental: The antitumor activity of compounds was measured in mice bearing transplantable tumors. Survival or tumor size were measured and the results are expressed as the measurement made in the treated group (T) divided by the measurement made in the vehicle treated control group (C). The tumor model used in this assay is L1210 Leukemia (intraperitoneal) in B6D2F1 (BDF1) mice
Inconclusive results and toxic doses are left out.

compound	T/C
C1CC2CCCC3C4CCCC5CCCC(C(C1)C23)C54 (stereo unspecified)	94 % of control
Cn1nc(C#N)c2c(N)ncnc21	104 % of control
CC1(C)N=C(N)N=C(N)N1c1ccc(Cl)cc1Cl	100 % of control
Nc1nc(=O)n(C2OC(CO)C(O)C2O)c2ccccc12 (stereo unspecified)	101 % of control
CC1(C)SC2C(NC(=O)C(C(=O)O)c3ccccc3)C(=O)N2C1C(=O)O (stereo unspecified)	95 % of control
CCOC(=O)C(O)(O)C(C)C	113 % of control
COc1cc(C2=C3C(=O)OCC3Cc3ccccc32)ccc1OCc1ccccc1 (stereo unspecified)	97 % of control
O=C(O)/C=C(\Cl)c1ccccc1	112 % of control
CCCCCCCCCCCCCCCC1=C(O)c2ccccc2C(=O)C1=O	112 % of control
COC(OC)C(Br)(Br)Br	96 % of control
Cc1cccc2c1sc1c(C)cc(C(=O)CCC(=O)O)cc12	94 % of control
O=[N+]([O-])c1cc2cnn(CCl)c2cc1[N+](=O)[O-]	103 % of control
O=c1cccc(CCCCCCc2cccc(=O)[nH]2)[nH]1	106 % of control
CCN(CC)c1ccc(/C=C(/S)C(=O)O)cc1	89 % of control
COC(=O)C1C(O)CC2CCC1[N+]2(C)C (stereo unspecified)	96 % of control
COc1ccc(C(=O)NCCBr)cc1[N+](=O)[O-]	108 % of control
CN(C)CCOC(c1ccccc1)c1ccccc1 (tested in a mixture with another compound)	109 % of control
CC(=O)/C(=C(/C)OB(F)F)C(C)C	104 % of control
CC1=NN(c2ccccc2)C(=O)C1N=Nc1ccccc1S(=O)(=O)O (stereo unspecified)	96 % of control
O=CO.[Cr]	102 % of control
CCc1ccncc1	101 % of control
CCCCOCCCNCC(=O)Nc1ccc(S(=O)(=O)c2ccc(NC(=O)CNCCCOCCCC)cc2)cc1	89 % of control
CSc1cc(=O)n(C2OC(CO)C(O)C2O)c(=O)[nH]1 (stereo unspecified)	101 % of control
CC(=O)Nc1ccc(/C=N/N2CCN(/N=C/c3ccc(NC(C)=O)cc3)CC2)cc1	86 % of control
O=S(=O)(Cc1ccccc1)/C(=C\c1ccccc1)c1ccccc1	105 % of control
OC1/C=C\CCCCC1 (stereo unspecified)	98 % of control

Where do the numbers come from? From PubChem BioAssay AID248.
